Source of measurements: ChEMBL document CHEMBL1146598

protocol.text: In vitro inhibition of 38-beta7 (alpha4-beta7) cell adhesion to mucosal addressin cell adhesion molecule-1.
Assay type: functional
Rule: measured Adhesion below 90% gets 1 (yes); anything equal to or greater than 90% gets 0 (no).

Some entries whose results are on file:
compound: CO[C@@]12O[C@@H]3[C@H](OCCO)[C@H](OCC(=O)O)O[C@H](COCC(C)C)[C@H]3O[C@@]1(OC)c1ccccc1-c1ccccc12
cat: 1 (yes)
//
compound: COC1C(CC(C)C)O[C@@H](OCC(=O)O)[C@H](OCc2ccccc2)[C@H]1OC (some centres undefined)
cat: 0 (no)
//
compound: COC1C(COCC(C)C)O[C@@H](OCC(=O)O)[C@H](OCc2ccccc2)[C@H]1OC (some centres undefined)
cat: 0 (no)
//
compound: COC1C(COC(C)C)O[C@@H](OCC(=O)O)C(OCc2ccccc2)[C@H]1OC (some centres undefined)
cat: 0 (no)
//
compound: COC1C(COC(C)C)O[C@@H](OCC(=O)O)[C@H](OCCO)[C@H]1OC (some centres undefined)
cat: 0 (no)
//
compound: COC12CCCC[C@]1(OC)O[C@H]1C(O2)C(COC(C)C)O[C@@H](OCC(=O)O)[C@@H]1OCc1ccccc1 (stereo in doubt; form 2)
cat: 1 (yes)

In plain terms, does COC12CCCC[C@]1(OC)O[C@H]1C(O2)C(COC(C)C)O[C@@H](OCC(=O)O)[C@@H]1OCc1ccccc1 (stereo in doubt; form 1) come in under 90% for Adhesion?
0 (no)

Quick check: Adhesion of CC(C)C[C@H](NC(=O)c1cc2ccccc2cn1)C(=O)N[C@@H](CC(=O)O)C(=O)N[C@H](C(N)=O)[C@@H](C)O under 90%?
1 (yes)
